molecular target: AXOR109 (Homo sapiens, UniProt Q8TDU6); construct: expressed in transfected cells; host or cells: melanophore cells, transfected by electroporation; experiment: Human AXOR109/Melanophore Assay; type: cell-based; details: 1 h, melanophore assay, normalized to alpha-MSH system max
Please respond with reported Emax for every item in the list.

Supply reported Emax belonging to this molecule: `COc1ccc(S(=O)(=O)N(C)C[C@@H]2CCCN2S(=O)(=O)c2ccc(OC)c(OC)c2)cc1OC`
76 to 100%

Supply reported Emax belonging to this molecule: COc1ccc(S(=O)(=O)N2CCCN(S(=O)(=O)c3ccc(OC)c(OC)c3)C(C)C2)cc1OC (stereo not shown)
51 to 75%

Supply reported Emax belonging to this molecule: `COc1ccc(S(=O)(=O)N2C[C@H](C)N(S(=O)(=O)c3ccc4c(c3)OCCO4)C[C@@H]2C)cc1OC`
76 to 100%

Supply reported Emax belonging to this molecule: `CCCN(C[C@H]1CCCN1S(=O)(=O)c1ccc(OC)c(OC)c1)S(=O)(=O)c1ccc(OC)c(OC)c1`
76 to 100%

====

Target: AXOR109 (Homo sapiens)
Sequence (Q8TDU6 1-330): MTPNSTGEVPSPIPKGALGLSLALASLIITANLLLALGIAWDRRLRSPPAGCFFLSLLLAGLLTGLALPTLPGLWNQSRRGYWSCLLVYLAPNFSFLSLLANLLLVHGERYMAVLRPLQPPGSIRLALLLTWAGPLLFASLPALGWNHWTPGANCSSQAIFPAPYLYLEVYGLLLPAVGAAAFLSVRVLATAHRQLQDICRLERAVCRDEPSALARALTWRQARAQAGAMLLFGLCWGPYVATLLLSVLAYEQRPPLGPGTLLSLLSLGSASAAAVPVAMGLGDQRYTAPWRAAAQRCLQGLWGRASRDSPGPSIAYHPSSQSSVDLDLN
Experiment: Human AXOR109/Melanophore Assay
Conditions: melanophore assay, AXOR109 transfected melanophores
quantity_kind: EC50

Supply reported EC50 belonging to this molecule: `COc1ccc(S(=O)(=O)N(C)CCN(C)S(=O)(=O)c2ccc(OC)c(OC)c2)cc1F`
126 to 1000 nM

Supply reported EC50 belonging to this molecule: COc1ccc(S(=O)(=O)N2CCCN(S(=O)(=O)c3ccc(OC)c(OC)c3)C(C)C2)cc1OC (stereo not drawn)
1260 to 10000 nM

Supply reported EC50 belonging to this molecule: `COc1ccc(S(=O)(=O)N2CCN(S(=O)(=O)c3ccc(-c4cnco4)cc3)CC2)cc1OC`
126 to 1000 nM

Supply reported EC50 belonging to this molecule: CCCN(C1CCN(S(=O)(=O)c2ccc(OC)c(OC)c2)C1)S(=O)(=O)c1ccc(OC)c(OC)c1 (stereo not drawn)
126 to 1000 nM

Supply reported EC50 belonging to this molecule: `COc1ccc(S(=O)(=O)N2CCN(S(=O)(=O)c3ccc(OC)c(OC)c3)c3ccccc32)cc1OC`
126 to 1000 nM

Supply reported EC50 belonging to this molecule: `COc1ccc(S(=O)(=O)N2C[C@H](C)N(S(=O)(=O)c3ccc4c(c3)OCCO4)C[C@@H]2C)cc1OC`
126 to 1000 nM

Supply reported EC50 belonging to this molecule: COc1ccc(S(=O)(=O)N2C[C@@H](C)N(S(=O)(=O)c3ccc(OC)c(OC)c3)[C@@H](C)C2)cc1OC [Example 20]
1260 to 10000 nM

Supply reported EC50 belonging to this molecule: COc1ccc(S(=O)(=O)N(C)CC(C)N(C)S(=O)(=O)c2ccc(OC)c(OC)c2)cc1OC (stereo not drawn)
126 to 1000 nM

Supply reported EC50 belonging to this molecule: `COc1ccc(S(=O)(=O)N(C)CCN(C)S(=O)(=O)c2ccc3c(c2)OCCCO3)cc1OC`
1260 to 10000 nM

Supply reported EC50 belonging to this molecule: `COc1ccc(S(=O)(=O)N(C)CCN(C)S(=O)(=O)c2ccc3c(c2)OCCN3C)cc1OC`
1260 to 10000 nM

Supply reported EC50 belonging to this molecule: `COc1ccc(S(=O)(=O)N(C)C[C@@H]2CCCN2S(=O)(=O)c2ccc(OC)c(OC)c2)cc1OC`
1260 to 10000 nM

Supply reported EC50 belonging to this molecule: `CCc1cc(S(=O)(=O)N2CCN(S(=O)(=O)c3ccc(OC)c(OC)c3)CC2)ccc1OC`
126 to 1000 nM

Supply reported EC50 belonging to this molecule: `COc1cccc(S(=O)(=O)N2C[C@@H](C)N(S(=O)(=O)c3ccc(OC)c(OC)c3)[C@@H](C)C2)c1`
1260 to 10000 nM

Supply reported EC50 belonging to this molecule: `CCN(C[C@@H]1CCCN1S(=O)(=O)c1ccc(OC)c(OC)c1)S(=O)(=O)c1ccc(OC)c(OC)c1`
126 to 1000 nM

Supply reported EC50 belonging to this molecule: `CCc1cc(S(=O)(=O)N2C[C@H](C)N(S(=O)(=O)c3ccc(OC)c(OC)c3)C[C@@H]2C)ccc1OC`
126 to 1000 nM
